experiment: Evaluation of light fastness-1 (OD value of printed portion after 100 hours xenon fadeometer); type: physicochemical; conditions: ink prepared as in Example 1 from the salt named in the row; OD value of printed portion after 100 hours xenon fadeometer
Experimental readout: (A)-1 light fastness-1

1. Cc1c(N=Nc2c(C(=O)O)cccc2C(=O)O)c(O)[nH]c(=O)c1C#N    ⊚
2. CCc1c(N=Nc2cc(C(=O)O)ccc2C(=O)O)c(O)n(CCNc2nc(NCCn3c(O)c(N=Nc4cc(C(=O)O)ccc4C(=O)O)c(CC)c(C#N)c3=O)nc(NCCn3c(O)c(N=Nc4cc(C(=O)O)ccc4C(=O)O)c(CC)c(C#N)c3=O)n2)c(=O)c1C#N    ⊚
3. Cc1c(N=Nc2cc(C(=O)O)ccc2C(=O)O)c(O)n(CCNc2nc(Cl)nc(NCCn3c(O)c(N=Nc4cc(C(=O)O)ccc4C(=O)O)c(C)c(C(N)=O)c3=O)n2)c(=O)c1C(N)=O    ⊚
